- Tested on: JAK1(JH1domain-catalytic)
- reported_conditions: concentration: 1 μM, replicates: in singlicate; n = 1;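 further: KINOMEscan kinase panel screen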
This listing pairs molecules with measured %Inh.
readout_label: %Inh (%)

>  <molecule>
Clc1ccc(-c2nn3ncccc3c2-c2ccnc(Nc3ccc4c(c3)OCCO4)n2)cc1 [GW829116]

>  <measured_result>
0

$$$$
>  <molecule>
Cn1cc(-c2ccc3c(c2)CCN3C(=O)Cc2cccc(Cl)c2)c2c(N)ncnc21 [GSK2606590]

>  <measured_result>
18

$$$$
>  <molecule>
CC(C)c1nc(-c2cccc(NS(=O)(=O)c3c(F)cccc3F)c2F)c(-c2ccnc(Nc3ccc(N4CCOCC4)nc3)n2)s1 [GSK2008607]

>  <measured_result>
1

$$$$
>  <molecule>
Cc1ccc(C(=O)N2CC[C@@H](O)C2)cc1-n1c(C)cc(OCc2ccc(F)cc2F)c(Br)c1=O

>  <measured_result>
0

$$$$
>  <molecule>
COc1cccc(C(=O)Nc2cccc(Oc3ccc4nc(NC(=O)C5CC5)cn4n3)c2)c1

>  <measured_result>
15

$$$$
>  <molecule>
Cl.NC(=O)c1cccc(Nc2nccc(Nc3ccc(Oc4c(Cl)cccc4Cl)c(Cl)c3)n2)c1 [GW659009]

>  <measured_result>
9

$$$$
>  <molecule>
COc1ccc(-c2coc3ccc(-c4nnc(SCc5ccc(OC)c(C(F)(F)F)c5)o4)cc23)cc1

>  <measured_result>
0

$$$$
>  <molecule>
C[C@@H]1CC[C@@H](C(=O)Nc2ccccc2)CN1c1cc(-c2ccc3c(N)n[nH]c3c2)nc(N)n1 [GSK2286062]

>  <measured_result>
2

$$$$

###

- System: TIE2
- Construct: gene TEK
- reported_conditions: concentration: 1 μM, replicates: in singlicate; n = 1

>  <compound>
CN(C)S(=O)(=O)c1cc(-c2ccc3nccc(-c4cccc(S(N)(=O)=O)c4)c3c2)cnc1N

>  <unit_descriptor>
%

>  <%Inh>
0

$$$$
>  <compound>
CCS(=O)(=O)c1ccc(OC)c(Nc2nccc(-c3c(-c4cccc(NC(=O)c5c(F)cccc5F)c4)nn4ncccc34)n2)c1

>  <unit_descriptor>
%

>  <%Inh>
37

$$$$
>  <compound>
Cc1cccc(Nc2nc(N[C@H]3CCNC3)ncc2C(N)=O)c1.Cl

>  <unit_descriptor>
%

>  <%Inh>
0

$$$$
>  <compound>
O=C(Nc1cccc(-c2nn3ncccc3c2-c2ccnc(Nc3ccccc3)n2)c1)c1c(F)cccc1F

>  <unit_descriptor>
%

>  <%Inh>
25

$$$$
>  <compound>
Fc1ccc(-c2ncn(C3CCNCC3)c2-c2ccnc(Oc3ccc(-c4ccccc4)cc3)n2)cc1

>  <unit_descriptor>
%

>  <%Inh>
31

$$$$
>  <compound>
Cl.Cl.NCC(NC(=O)c1cc(-c2ccccc2)c(-c2ccnc3[nH]ccc23)s1)c1ccccc1 (stereo not drawn)

>  <unit_descriptor>
%

>  <%Inh>
0

$$$$
>  <compound>
COc1cccc(NC(=O)NC2CCN(c3ccnc(Nc4cc(OC)c(OC)c(OC)c4)n3)C2)c1 (stereo not drawn)

>  <unit_descriptor>
%

>  <%Inh>
0

$$$$
>  <compound>
COc1cc(Nc2nccc(-c3c(-c4cccc(NC(=O)c5c(F)cccc5F)c4)nn4ccccc34)n2)cc(OC)c1OC

>  <unit_descriptor>
%

>  <%Inh>
46

$$$$
>  <compound>
CN(c1ccc(NC(=O)Nc2cc(C(F)(F)F)ccc2F)cc1)c1ccnc(Nc2ccc(S(N)(=O)=O)cc2)n1

>  <unit_descriptor>
%

>  <%Inh>
99.6

$$$$
>  <compound>
Cl.Cl.NCC(C(=O)Nc1cc(Br)c(-c2ccnc3[nH]ccc23)s1)c1ccccc1 (stereo not drawn)

>  <unit_descriptor>
%

>  <%Inh>
6

$$$$
>  <compound>
Cc1ccc(F)c(C(=O)Nc2cccc(-c3nn4ccccc4c3-c3ccnc(Nc4cccc(F)c4)n3)c2)c1F

>  <unit_descriptor>
%

>  <%Inh>
27

$$$$
>  <compound>
CC(=O)N1CCN(c2ccc(Nc3nccc(-c4sc(C(C)C)nc4-c4cccc(NS(=O)(=O)c5cccc(Cl)c5)c4)n3)cn2)CC1

>  <unit_descriptor>
%

>  <%Inh>
96.8

$$$$
>  <compound>
Cc1ccc(S(=O)(=O)Nc2ccc(Nc3nccc(Nc4cccc5[nH]ncc45)n3)cc2)cc1

>  <unit_descriptor>
%

>  <%Inh>
0

$$$$
>  <compound>
CCc1ccc(-c2ccc3c(c2)-c2c(cnn2C)S(=O)(=O)N3C)cc1

>  <unit_descriptor>
%

>  <%Inh>
0

$$$$
>  <compound>
COc1cc(Nc2nccc(N3CCC(NC(=O)Nc4cccc(C(C)=O)c4)C3)n2)cc(OC)c1OC (stereo not drawn)

>  <unit_descriptor>
%

>  <%Inh>
1

$$$$
